Entries and their CC50 at 3 days
# Assay Info: RSV HEP2-CC50-384-V2 (per Ex. V)
# Type: cell-based
# Condition Parameters: human

Item Smiles: CCCCCCCCCCCCCCOC[C@H](COP(=O)(O)OC[C@@]1(C#N)O[C@@H](c2ccc3c(N)ncnn23)[C@H](O)[C@@H]1O)OCc1ccc(C#N)cc1F
Readout Name: CC50 at 3 days
Assay Result: > 48.5 µM
--
Item Smiles: CCCCCCCCCCCCCCCC[C@@H](COP(=O)(O)OC[C@@]1(C#N)O[C@@H](c2ccc3c(N)ncnn23)[C@H](O)[C@@H]1O)OCc1cc(F)cc(C#N)c1
Readout Name: CC50 at 3 days
Assay Result: 38.1 µM

Now for a further compound.
Which CC50 at 3 days value belongs to CCCCCCCCCCCCCCCCCCC[C@H](COP(=O)(O)OC[C@@]1(C#N)O[C@@H](c2ccc3c(N)ncnn23)[C@H](O)[C@@H]1O)Oc1cc(OC)c(C#N)c(OC)c1 ?
> 41.4 µM

----------
# Assay Info: RSV NHBE CC50 384 V2 (per Ex. U)
# Type: cell-based
# Condition Parameters: human
// assign condition met if CC50 at 3 days falls strictly below 5 µM, else condition not met (ties count as condition not met)

Observe how each entry below is paired with its result.
Molecule: CCCCCCCCCCCCCCCCCOC[C@H](COP(=O)(O)OC[C@@]1(C#N)O[C@@H](c2ccc3c(N)ncnn23)[C@H](O)[C@@H]1O)OCc1cc(F)cc(C#N)c1 [Compound 53]
Category Label: condition met
//
Molecule: CCCCCCCCCCCCCCCCCC[C@@H](COP(=O)(O)OC[C@@]1(C#N)O[C@@H](c2ccc3c(N)ncnn23)[C@H](O)[C@@H]1O)Oc1cc(F)cc(C#N)c1 [Compound 96]
Category Label: condition not met
//
Molecule: CCCCCCCCCCCCCCCCCCOC[C@H](COP(=O)(O)OC[C@@]1(C#N)O[C@@H](c2ccc3c(N)ncnn23)[C@H](O)[C@@H]1O)OCc1cc(F)cc(C#N)c1 [Compound 1]
Category Label: condition met
//
Molecule: CCCCCCCCCCCCCCCCCC[C@@H](COP(=O)(O)OC[C@@]1(C#N)O[C@@H](c2ccc3c(N)ncnn23)[C@H](O)[C@@H]1O)OCc1ccccc1 [Compound 93]
Category Label: condition not met

Here's the next entry for you.
Input CCCCCCCCCCCCCCCCCCOC[C@H](COP(=O)(O)OC[C@@]1(C#N)O[C@@H](c2ccc3c(N)ncnn23)[C@H](O)[C@@H]1O)Oc1cccc(C#N)n1 [Compound 21] ; condition: CC50 at 3 days strictly below 5 µM. Does it hold?
condition met

----------
# Assay Info: in vitro
# Assay type: cell-based
# Condition Parameters: human
Mark 1 only for CC50 values smaller than 20 µM; exact matches and larger values are 0.

Input CCCCCCCCCCCCCCCCC[C@H](COP(=O)(O)OC[C@@]1(C#N)O[C@@H](c2ccc3c(N)ncnn23)[C@H](O)[C@@H]1O)OCc1cc(F)cc(C#N)c1 ; condition: CC50 strictly below 20 µM. Does it hold?
1

Strictly below 20 µM: is that where CC50 of CCCCCCCCCCCCCCCCCCOC[C@H](COP(=O)(O)OC[C@@]1(C#N)O[C@@H](c2ccc3c(N)ncnn23)[C@H](O)[C@@H]1O)OCc1ccc(C#N)c(-n2cncn2)c1 sits?
0

Check if CC50 falls below 20 µM for CCCCCCCCCCCCCCCCCCOC[C@H](COP(=O)(O)OC[C@@]1(C#N)O[C@@H](c2ccc3c(N)ncnn23)[C@H](O)[C@@H]1O)OCc1ccc(C#N)nc1 .
0

Lab note: confirm whether the reported CC50 for this molecule is below 20 µM, equality not counting. molecule: CCCCCCCCCCCCCCCCCCOC[C@H](COP(=O)(O)OC[C@@]1(C#N)O[C@@H](c2ccc3c(N)ncnn23)[C@H](O)[C@@H]1O)OCc1ccc(C#N)c(Cl)c1
1

I wonder whether CCCCCCCCCCCCCCCCCCOCC(COc1cc(F)cc(C#N)c1)COP(=O)(O)OC[C@@]1(C#N)O[C@@H](c2ccc3c(N)ncnn23)[C@H](O)[C@@H]1O (some centres unmarked) has CC50 below 20 µM. Can you tell?
1
